# credit: patent US20020086278A1

Tested on: Entercoccus faecalis (enfa)
TEST PROTOCOL: Example 3: colony color on chromogenic TSA II with 5% sheep blood (chromogen in medium)
Type: cell-based
MEASUREMENT CONTEXT: enfa 12953; CO2; 21 h
PROPERTY NAME: Colony Color

{"columns": ["MOLECULE", "VALUE"],
 "data": [
  ["CC(=O)N[C@H]1[C@H](Oc2c[nH]c3ccc(Br)c(Cl)c23)O[C@H](CO)[C@H](O)[C@@H]1O", "db"],
  ["O=P(O)(O)Oc1c[nH]c2cc(Cl)c(Br)cc12", "lp"],
  ["OC[C@H]1O[C@@H](Oc2c[nH]c3ccc(Br)c(Cl)c23)[C@H](O)[C@@H](O)[C@@H]1O [X-Glucoside, 5-Br-4-Cl-3-indolyl-β-D-glucopyranoside]", "db"]
]}
